Data credit: patent US11053218B2

- target-desc: IKZF1 (Homo sapiens, UniProt Q13422+Q96SW2)
- Sequence (Q13422 whole entry): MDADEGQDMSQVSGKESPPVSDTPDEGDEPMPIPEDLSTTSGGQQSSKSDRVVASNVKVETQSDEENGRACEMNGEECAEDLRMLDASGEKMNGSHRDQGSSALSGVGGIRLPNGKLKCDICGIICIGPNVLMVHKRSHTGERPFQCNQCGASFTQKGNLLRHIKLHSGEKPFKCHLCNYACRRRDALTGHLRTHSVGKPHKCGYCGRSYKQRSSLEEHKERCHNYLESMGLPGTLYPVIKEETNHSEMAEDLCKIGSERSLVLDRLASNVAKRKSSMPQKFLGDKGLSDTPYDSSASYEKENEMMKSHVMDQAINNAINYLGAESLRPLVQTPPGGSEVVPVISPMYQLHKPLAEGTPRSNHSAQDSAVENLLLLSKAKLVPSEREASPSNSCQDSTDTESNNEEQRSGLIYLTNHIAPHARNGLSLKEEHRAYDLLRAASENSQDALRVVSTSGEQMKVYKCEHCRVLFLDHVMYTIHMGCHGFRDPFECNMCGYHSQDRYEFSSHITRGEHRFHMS
- Sequence (Q96SW2 whole entry): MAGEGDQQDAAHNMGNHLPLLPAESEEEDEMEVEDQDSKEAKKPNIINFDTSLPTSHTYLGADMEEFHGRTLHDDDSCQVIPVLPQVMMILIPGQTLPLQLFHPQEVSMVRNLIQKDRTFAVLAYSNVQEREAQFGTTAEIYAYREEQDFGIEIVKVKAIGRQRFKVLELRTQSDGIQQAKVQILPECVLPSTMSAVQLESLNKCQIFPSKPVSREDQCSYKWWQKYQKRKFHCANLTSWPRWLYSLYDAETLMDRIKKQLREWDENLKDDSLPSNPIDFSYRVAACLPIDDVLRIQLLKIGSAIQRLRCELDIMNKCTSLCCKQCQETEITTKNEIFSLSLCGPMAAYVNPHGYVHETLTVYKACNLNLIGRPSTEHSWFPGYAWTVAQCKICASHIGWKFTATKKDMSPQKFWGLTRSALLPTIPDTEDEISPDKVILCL
- Sequence (Q16531 whole entry partner): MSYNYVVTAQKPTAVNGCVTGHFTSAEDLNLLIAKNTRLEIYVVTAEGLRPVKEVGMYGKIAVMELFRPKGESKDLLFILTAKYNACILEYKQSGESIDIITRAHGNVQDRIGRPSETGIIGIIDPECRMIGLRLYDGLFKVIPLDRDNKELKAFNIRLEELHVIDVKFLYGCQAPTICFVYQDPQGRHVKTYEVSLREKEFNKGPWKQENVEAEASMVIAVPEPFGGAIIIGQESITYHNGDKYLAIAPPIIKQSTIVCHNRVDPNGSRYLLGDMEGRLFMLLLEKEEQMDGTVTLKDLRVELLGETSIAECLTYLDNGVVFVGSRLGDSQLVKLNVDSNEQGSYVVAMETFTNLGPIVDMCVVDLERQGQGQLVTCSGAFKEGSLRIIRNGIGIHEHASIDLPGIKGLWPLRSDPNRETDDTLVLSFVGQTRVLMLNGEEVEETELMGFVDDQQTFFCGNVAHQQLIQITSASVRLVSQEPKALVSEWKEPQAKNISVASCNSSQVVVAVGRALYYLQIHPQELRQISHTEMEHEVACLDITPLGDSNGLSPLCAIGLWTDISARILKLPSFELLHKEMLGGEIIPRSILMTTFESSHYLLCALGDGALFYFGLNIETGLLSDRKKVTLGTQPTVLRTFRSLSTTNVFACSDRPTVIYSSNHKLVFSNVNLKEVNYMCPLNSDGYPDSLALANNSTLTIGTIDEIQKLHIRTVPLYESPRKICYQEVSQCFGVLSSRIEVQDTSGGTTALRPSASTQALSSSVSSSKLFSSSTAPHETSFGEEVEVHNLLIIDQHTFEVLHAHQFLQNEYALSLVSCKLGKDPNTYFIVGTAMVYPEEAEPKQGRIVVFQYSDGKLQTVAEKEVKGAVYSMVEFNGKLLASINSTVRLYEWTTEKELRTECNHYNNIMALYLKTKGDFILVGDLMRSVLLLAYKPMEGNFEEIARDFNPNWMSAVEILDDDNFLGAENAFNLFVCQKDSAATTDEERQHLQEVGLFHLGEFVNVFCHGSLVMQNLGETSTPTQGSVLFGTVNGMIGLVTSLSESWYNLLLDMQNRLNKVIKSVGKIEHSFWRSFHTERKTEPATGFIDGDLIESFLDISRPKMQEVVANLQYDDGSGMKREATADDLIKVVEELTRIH
- test-protocol: Prolabel quantification of IKZF1 protein levels in 293GT cells
- Assay type: cell-based
- measurement-setup: Prolabel assay, read-out: IKZF1 EC50
measured-endpoint: DC50

compound	target-desc	DC50
NC(=O)c1nc(CN2CCC(c3ccc4c(c3)CN(C3CCC(=O)NC3=O)C4=O)CC2)no1 (centres unmarked)	IKZF1 (Homo sapiens, UniProt Q13422+Q96SW2)	> 30 µM
O=C(O)Cc1ccc(CN2CCC(c3ccc4c(c3)CN(C3CCC(=O)NC3=O)C4=O)CC2)cc1 (centres unmarked)	IKZF1 (Homo sapiens, UniProt Q13422+Q96SW2)	> 30 µM
O=C1CCC(N2Cc3cc(C4CCN(Cc5nc6ccccc6s5)CC4)ccc3C2=O)C(=O)N1 (centres unmarked)	IKZF1 (Homo sapiens, UniProt Q13422+Q96SW2)	> 30 µM
O=C1CCC(N2Cc3cc(C4CCN(CC5CCCCC5)CC4)ccc3C2=O)C(=O)N1 (centres unmarked)	IKZF1 (Homo sapiens, UniProt Q13422+Q96SW2)	> 50 µM

Answer with the recorded DC50 of O=C1CCC(N2Cc3cc(C4CCN(Cc5c[nH]nc5-c5ccccc5)CC4)ccc3C2=O)C(=O)N1 (centres unmarked) only. > 30 µM

Answer with the recorded DC50 of Cc1cc(CN2CCC(c3ccc4c(c3)CN(C3CCC(=O)NC3=O)C4=O)CC2)on1 (centres unmarked) only. > 50 µM

Answer with the recorded DC50 of O=C1CCC(N2Cc3cc(C4CCN(Cc5ccc6ccccc6c5)CC4)ccc3C2=O)C(=O)N1 (centres unmarked) only. > 30 µM

Answer with the recorded DC50 of COC(=O)CN1CCC(c2ccc3c(c2)CN(C2CCC(=O)NC2=O)C3=O)CC1 (centres unmarked) only. > 50 µM
